- protocolDescription: Pharmacokinetics study on beagle dogs
- Format: in vivo
- testSettings: both, beagle, dog, plasma, po, 1 mg/kg
experimentalEndpoint: MRT inf (h)
Form entry: value (h) — number only.

Query: # input compound: `CO[C@H]1CN(c2ccc(C(C)(C)O)nn2)CC[C@H]1NC(=O)c1[nH]c(C)c(Cl)c1Cl` ; wanted: its MRT inf
Response: 9.85

---

- protocolDescription: Pharmacokinetics study on beagle dogs
- Format: in vivo
- testSettings: both, beagle, dog, plasma, iv, 1 mg/kg
experimentalEndpoint: Cmax
Report as: number unit

Query: Cmax for CO[C@H]1CN(c2ccc(C(C)(C)O)nn2)CC[C@H]1NC(=O)c1[nH]c(C)c(Cl)c1Cl [Compound 28] ?
Response: 5510 ng/mL

---

- protocolDescription: Cytotoxicity assay
- testSettings: human, HK2 renal tubular epithelial cells
experimentalEndpoint: IC50 at 48 h

Query: # input molecule: `CO[C@H]1CN(c2ccc(C(C)(C)O)nn2)CC[C@H]1NC(=O)c1[nH]c(C)c(Cl)c1Cl` ; wanted: its IC50 at 48 h
Response: > 10 µM

---

- protocolDescription: Pharmacokinetics study on beagle dogs
- Assay type: in vivo
- testSettings: both, beagle, dog, plasma, iv, 1 mg/kg
experimentalEndpoint: Tmax (min)
Numeric only. Scale: min

Query: Entry under review: CO[C@H]1CN(c2ccc(C(C)(C)O)nn2)CC[C@H]1NC(=O)c1[nH]c(C)c(Cl)c1Cl [Compound 28] . Reported Tmax?
Response: 52.4

---

Data export: pIC50 values recorded with S. aureus gyrase (Staphylococcus aureus).
Sequence (P0A0K8 whole entry): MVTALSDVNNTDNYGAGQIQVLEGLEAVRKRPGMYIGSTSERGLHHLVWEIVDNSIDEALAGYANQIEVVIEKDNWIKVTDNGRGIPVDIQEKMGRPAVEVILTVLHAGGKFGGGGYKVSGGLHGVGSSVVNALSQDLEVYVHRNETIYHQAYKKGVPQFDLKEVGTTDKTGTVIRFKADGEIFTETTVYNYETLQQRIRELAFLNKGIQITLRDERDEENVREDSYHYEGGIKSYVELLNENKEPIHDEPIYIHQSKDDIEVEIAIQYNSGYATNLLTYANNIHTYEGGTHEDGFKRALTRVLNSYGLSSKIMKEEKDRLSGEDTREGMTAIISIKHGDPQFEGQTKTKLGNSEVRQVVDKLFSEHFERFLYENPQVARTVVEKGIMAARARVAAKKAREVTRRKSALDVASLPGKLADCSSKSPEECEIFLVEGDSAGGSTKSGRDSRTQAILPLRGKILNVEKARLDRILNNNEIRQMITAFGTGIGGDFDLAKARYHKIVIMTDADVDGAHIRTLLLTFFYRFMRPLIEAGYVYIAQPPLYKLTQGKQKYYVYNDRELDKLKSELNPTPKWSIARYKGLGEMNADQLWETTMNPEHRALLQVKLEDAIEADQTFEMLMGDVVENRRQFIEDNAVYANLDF
Sequence (P20831 whole entry partner): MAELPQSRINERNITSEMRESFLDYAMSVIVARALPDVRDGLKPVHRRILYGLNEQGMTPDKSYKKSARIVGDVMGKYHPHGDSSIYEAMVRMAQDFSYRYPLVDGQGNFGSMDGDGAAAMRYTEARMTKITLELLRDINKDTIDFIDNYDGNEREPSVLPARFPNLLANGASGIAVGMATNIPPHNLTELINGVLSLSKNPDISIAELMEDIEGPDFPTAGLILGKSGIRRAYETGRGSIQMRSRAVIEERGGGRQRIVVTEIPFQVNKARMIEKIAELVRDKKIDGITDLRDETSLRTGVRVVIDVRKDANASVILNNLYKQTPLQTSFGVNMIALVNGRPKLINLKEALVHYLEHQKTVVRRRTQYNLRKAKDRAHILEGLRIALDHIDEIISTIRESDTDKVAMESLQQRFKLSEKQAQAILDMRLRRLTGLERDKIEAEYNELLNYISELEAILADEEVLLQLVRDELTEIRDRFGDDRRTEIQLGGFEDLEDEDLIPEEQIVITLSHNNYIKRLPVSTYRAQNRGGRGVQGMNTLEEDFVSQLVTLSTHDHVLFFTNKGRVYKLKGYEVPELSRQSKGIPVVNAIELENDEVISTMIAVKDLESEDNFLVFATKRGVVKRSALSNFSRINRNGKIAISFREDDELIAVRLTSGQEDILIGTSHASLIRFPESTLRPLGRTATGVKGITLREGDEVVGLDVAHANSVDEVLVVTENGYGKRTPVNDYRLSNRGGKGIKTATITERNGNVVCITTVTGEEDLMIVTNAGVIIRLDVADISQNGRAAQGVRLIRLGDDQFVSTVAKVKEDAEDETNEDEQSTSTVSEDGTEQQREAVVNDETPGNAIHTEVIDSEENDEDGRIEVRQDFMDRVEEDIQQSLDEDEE
The value called pIC50 is obtained by taking minus log10 of the concentration in mol/L.

Query: What does the data say about its pIC50? Entry: `CO[C@H]1CN(c2ccc(C(F)(F)F)nn2)CC[C@H]1NC(=O)c1[nH]c(C)c(Cl)c1Cl`
Response: 6.92

Query: Can you share its pIC50? I mean this compound: `CO[C@H]1CN(c2ccc(F)nn2)CC[C@H]1NC(=O)c1[nH]c(C)c(Cl)c1Cl`
Response: 7.08

Query: Tell me the measured pIC50 of `CO[C@H]1CN(c2ccc(C#N)nn2)CC[C@H]1NC(=O)c1[nH]c(C)c(Cl)c1Cl` , please.
Response: 6.15

Query: Fill blank: measured pIC50 of the compound `CO[C@H]1CN(c2ccc(CO)nn2)CC[C@H]1NC(=O)c1[nH]c(C)c(Cl)c1Cl` is ____.
Response: 7.03

Query: For the compound `COC(=O)c1cnc(N2CC[C@@H](NC(=O)c3[nH]c(C)c(Cl)c3Cl)[C@@H](OC)C2)s1` , what pIC50 is on record?
Response: 5.84

Query: Any idea what its pIC50 is? The compound is `CNC(=O)c1ccc(N2CC[C@@H](NC(=O)c3[nH]c(C)c(Cl)c3Cl)[C@@H](OC)C2)nn1`
Response: 6.16

Query: State the recorded pIC50 for this entry: `CO[C@H]1CN(c2ccc(C(C)(C)O)nn2)CC[C@H]1NC(=O)c1[nH]c(C)c(Cl)c1Cl`
Response: 7.31

Query: Which measured pIC50 value corresponds to `CO[C@H]1CN(c2ccc(C(=O)N3CCNCC3)nn2)CC[C@H]1NC(=O)c1[nH]c(C)c(Cl)c1Cl` ?
Response: 5.96

Query: Give the measured pIC50 of `CO[C@H]1CN(c2ccc(/C(C)=N/O)nn2)CC[C@H]1NC(=O)c1[nH]c(C)c(Cl)c1Cl` .
Response: 5.83

Query: I have this compound here, `CCOC(=O)c1cnc(N2CC[C@@H](NC(=O)c3[nH]c(C)c(Cl)c3Cl)[C@@H](OC)C2)nc1` , and I need its recorded pIC50.
Response: 5.31
